# Test system: E. coli 77 CMY-2-positive
# Experiment Summary: checkerboard microdilution, antibiotic plus tested agent
# Type: cell-based, Escherichia coli
Assay Metric: The lowest FICI with ceftazidime

Worked examples follow.
# Molecule, The lowest FICI with ceftazidime
data = [
    ("OB(O)c1cccc(B(O)O)c1 [2a]", 0.15),
    ("OB(O)c1ccc(B(O)O)cc1 [1a]", 0.15),
    ("OB(O)c1ccccc1 [PBA, phenylboronic acid, reference compound]", 0.15),
    ("OB(O)c1ccsc1B(O)O [5a, thiophene-2,3-diboronic acid]", 0.27),
    ("OB(O)c1ccc(B(O)O)c(F)c1 [1b]", 0.10),
    ("OB(O)c1ccc(B(O)O)c(F)c1F [1c]", 0.14),
    ("OB(O)c1cccc(F)c1B(O)O [3b]", 0.27),
    ("OB(O)c1cc(F)c(B(O)O)cc1F [1e]", 0.14),
]

Now examine the next entry.
Entry OB(O)c1cc(B(O)O)c(B(O)O)s1 [5c, thiophene-2,3,5-triboronic acid] , The lowest FICI with ceftazidime reported as 0.27

* * *

# Test system: E. faecalis ATCC 29212
# Experiment Summary: direct antimicrobial activity (disc-diffusion, MIC, MBC)
# Type: cell-based
# Setup Conditions: Enterococcus faecalis, ATCC29212
Assay Metric: MIC (µg/mL)
Your answer is read as µg/mL, so omit the unit and give the number.

Considering OB(O)c1cc(C(F)(F)F)cc(B(O)O)c1F , its MIC with E. faecalis ATCC 29212 was recorded as 50

Considering OB(O)c1cccc(B(O)O)c1 , its MIC with E. faecalis ATCC 29212 was recorded as 200

Considering OB(O)c1ccc(B(O)O)c(F)c1F , its MIC with E. faecalis ATCC 29212 was recorded as 200

Considering OB(O)c1ccc(B(O)O)c(B(O)O)c1 , its MIC with E. faecalis ATCC 29212 was recorded as 200

Considering OB(O)c1ccc(B(O)O)cc1 , its MIC with E. faecalis ATCC 29212 was recorded as 200

* * *

In this section we review reported MIC values for a set of compounds.
# Test system: E. coli 77 CMY-2(+)
# Experiment Summary: MIC of tested agent alone, microdilution
# Format: cell-based
# Setup Conditions: Escherichia coli; read-out: MIC of agent alone
# Description: To examine the ability of tested agents to inhibit various carbapenemases and AmpC-enzymes, their synergy with antibiotics against β-lactamase-producing strains was assessed by checkerboard microdilution assay, with slight modification. […] Parallel, MICs of tested agents and PBA alone were determined by the microdilution assay. Following the incubation, antibiotic MICs in the presence of each agent’s concentration were determined. […]

Entry OB(O)c1ccsc1B(O)O , MIC reported as > 400 µg/mL

Entry OB(O)c1cccc(F)c1B(O)O , MIC reported as > 400 µg/mL

Entry OB(O)c1cccc(B(O)O)c1 , MIC reported as > 400 µg/mL

Entry OB(O)c1ccc(B(O)O)c(B(O)O)c1 , MIC reported as > 400 µg/mL

* * *

# System: S. aureus ATCC 6538P
# Experiment Summary: direct antimicrobial activity (disc-diffusion, MIC, MBC)
# Assay type: cell-based
# Setup Conditions: Staphylococcus aureus, ATCC6538P
Assay Metric: MIC (µg/mL)
Your answer is read as µg/mL, so omit the unit and give the number.

Worked examples follow.
# Smiles Record, MIC [µg/mL]
records = [
    ("C[Si](C)(C)c1cc(B(O)O)c([Si](C)(C)C)cc1B(O)O", 100),
    ("OB(O)c1cc(F)c(B(O)O)c(F)c1", 25),
]

Entry OB(O)c1cc(F)c(F)c(B(O)O)c1 , MIC reported as 50

Entry OB(O)c1ccccc1B(O)O , MIC reported as 200

Entry OB(O)c1cc(B(O)O)c(F)cc1F , MIC reported as 50

Entry OB(O)c1ccc(F)cc1B(O)O , MIC reported as 200

Entry OB(O)c1ccc(B(O)O)c(F)c1 , MIC reported as 25

Entry OB(O)c1cccc(B(O)O)c1 , MIC reported as 100

Entry OB(O)c1cc(C(F)(F)F)cc(B(O)O)c1F , MIC reported as 6.25
